- TESTED ON: Glycogen synthase kinase-3 beta (Homo sapiens)
- Sequence (P49841 whole entry): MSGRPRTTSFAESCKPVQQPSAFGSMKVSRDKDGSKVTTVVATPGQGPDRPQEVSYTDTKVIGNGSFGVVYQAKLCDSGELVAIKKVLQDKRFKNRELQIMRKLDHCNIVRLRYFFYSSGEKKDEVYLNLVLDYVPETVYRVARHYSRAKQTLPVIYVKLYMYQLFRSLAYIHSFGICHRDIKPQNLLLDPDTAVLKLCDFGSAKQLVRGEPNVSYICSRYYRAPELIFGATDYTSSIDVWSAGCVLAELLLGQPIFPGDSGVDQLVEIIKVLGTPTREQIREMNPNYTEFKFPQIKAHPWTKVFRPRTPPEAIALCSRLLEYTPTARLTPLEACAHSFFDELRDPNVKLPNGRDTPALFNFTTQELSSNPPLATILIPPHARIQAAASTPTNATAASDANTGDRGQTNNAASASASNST
- PROTOCOL DETAILS: Inhibition of recombinant full-length N-terminal GST tagged human GSK-3 beta expressed in baculovirus infected Sf9 insect cells using GSM as substrate after 5 mins by ADP-Glo luminescence assay
pIC50 values for the compounds below.
Lab note: report pIC50 as minus log10 of the concentration in molar units, number only.

{"STRUCTURE AS SMILES": "O=C1Nc2ncccc2N[C@@H]1Cc1c[nH]c2ccccc12", "pIC50": 4.74}

Now look at this one.
Give Glycogen synthase kinase-3 beta (Homo sapiens) pIC50 for the following compound: O=C1Nc2ncccc2N[C@H]1Cc1c[nH]c2ccccc12
3.49
